# measured target: Tyrosine-protein kinase JAK1 (Homo sapiens)
# Sequence (P23458 whole entry): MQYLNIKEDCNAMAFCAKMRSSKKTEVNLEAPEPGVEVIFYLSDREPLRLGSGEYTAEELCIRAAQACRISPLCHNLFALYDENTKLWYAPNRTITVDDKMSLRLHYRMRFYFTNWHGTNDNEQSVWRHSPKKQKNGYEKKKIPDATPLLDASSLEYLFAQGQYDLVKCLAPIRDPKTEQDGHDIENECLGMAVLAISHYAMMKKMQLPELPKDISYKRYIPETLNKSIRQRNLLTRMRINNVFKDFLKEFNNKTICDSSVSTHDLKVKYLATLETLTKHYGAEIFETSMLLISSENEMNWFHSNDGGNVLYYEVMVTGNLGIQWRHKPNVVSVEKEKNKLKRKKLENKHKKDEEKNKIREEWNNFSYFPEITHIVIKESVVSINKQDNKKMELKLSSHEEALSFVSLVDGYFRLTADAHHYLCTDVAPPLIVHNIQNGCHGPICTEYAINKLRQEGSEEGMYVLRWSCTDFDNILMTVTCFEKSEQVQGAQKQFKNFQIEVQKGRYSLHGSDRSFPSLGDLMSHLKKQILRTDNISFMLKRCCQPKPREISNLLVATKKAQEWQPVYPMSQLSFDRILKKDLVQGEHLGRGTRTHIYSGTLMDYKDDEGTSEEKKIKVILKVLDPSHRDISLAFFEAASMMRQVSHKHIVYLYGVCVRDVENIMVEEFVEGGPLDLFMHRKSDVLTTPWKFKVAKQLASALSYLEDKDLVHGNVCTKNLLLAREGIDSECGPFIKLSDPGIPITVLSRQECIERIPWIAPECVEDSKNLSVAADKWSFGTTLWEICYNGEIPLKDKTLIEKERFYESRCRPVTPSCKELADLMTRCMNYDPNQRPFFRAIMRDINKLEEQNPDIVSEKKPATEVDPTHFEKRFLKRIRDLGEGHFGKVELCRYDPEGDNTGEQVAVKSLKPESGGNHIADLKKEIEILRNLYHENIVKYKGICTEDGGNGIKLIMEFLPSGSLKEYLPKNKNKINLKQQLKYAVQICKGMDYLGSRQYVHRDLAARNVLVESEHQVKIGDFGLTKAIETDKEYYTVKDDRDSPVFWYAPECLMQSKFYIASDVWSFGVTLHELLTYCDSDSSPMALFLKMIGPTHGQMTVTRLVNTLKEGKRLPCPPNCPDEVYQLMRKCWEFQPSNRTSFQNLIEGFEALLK
measured metric: IC50
Respond with a number, then the unit of measure.

[Q] Fill in the blank: the reported IC50 of `C=CC(=O)Nc1cccc(Cn2c(=O)ccc3cnc(Nc4ccc(N5CCN(C)CC5)cc4)nc32)c1` is ____.
[A] 2430 nM

* * *

Exercise: for every item that follows, state its recorded IC50.
# measured target: Tyrosine-protein kinase JAK3 (Homo sapiens, UniProt P52333)
Give bare numbers, in nM.

Reference set (3 entries):
>>> print(df.to_string())
                         compound_structure                           measured_target  reported_result
0  C=CC(=O)Nc1cccc(Cn2c(=O)cc(C3CC3)c3cnc(Nc4ccc(N5CCN(C)CC5)cc4OC)nc32)c1  Tyrosine-protein kinase JAK3 (Homo sapiens, UniProt P52333)             1450
1  C=CC(=O)Nc1cccc(Cn2c(=O)ccc3cnc(Nc4cnn(CCOC)c4)nc32)c1  Tyrosine-protein kinase JAK3 (Homo sapiens, UniProt P52333)              3.3
2  C/C=C/C(=O)Nc1cccc(Cn2c(=O)ccc3cnc(Nc4ccccc4OC)nc32)c1  Tyrosine-protein kinase JAK3 (Homo sapiens, UniProt P52333)             4800

We next turn to a different compound, shown below.
[Q] GET /values?readout=IC50&system=Tyrosine-protein kinase JAK3 (Homo sapiens, UniProt P52333)&item= `C=CC(=O)Nc1cccc(Cn2c(=O)ccc3cnc(Nc4cnn(CCO)c4)nc32)c1`
[A] 1.7

* * *

# measured target: Tyrosine-protein kinase BTK (Homo sapiens)
# Sequence (Q06187 whole entry): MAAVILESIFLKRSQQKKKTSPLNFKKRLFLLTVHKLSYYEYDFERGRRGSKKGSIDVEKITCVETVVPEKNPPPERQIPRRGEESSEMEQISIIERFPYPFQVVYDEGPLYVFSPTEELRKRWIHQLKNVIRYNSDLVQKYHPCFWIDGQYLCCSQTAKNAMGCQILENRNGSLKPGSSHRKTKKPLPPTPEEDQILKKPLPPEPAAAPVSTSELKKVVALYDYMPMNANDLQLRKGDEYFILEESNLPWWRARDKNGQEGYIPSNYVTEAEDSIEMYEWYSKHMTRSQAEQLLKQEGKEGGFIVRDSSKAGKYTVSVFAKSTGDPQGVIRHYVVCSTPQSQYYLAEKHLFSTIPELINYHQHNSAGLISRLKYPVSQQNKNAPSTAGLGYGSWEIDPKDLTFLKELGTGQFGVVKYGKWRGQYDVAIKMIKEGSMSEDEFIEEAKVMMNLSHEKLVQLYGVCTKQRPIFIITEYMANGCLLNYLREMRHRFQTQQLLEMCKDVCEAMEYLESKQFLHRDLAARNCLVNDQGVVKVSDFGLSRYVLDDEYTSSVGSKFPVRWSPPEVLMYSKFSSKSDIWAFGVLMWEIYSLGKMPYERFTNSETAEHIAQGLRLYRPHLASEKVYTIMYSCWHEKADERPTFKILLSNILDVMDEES
measured metric: IC50 (nM)
One number for each entry, in nM.

[Q] Entry `C=CC(=O)Nc1cccc(Cn2c(=O)ccc3cnc(Nc4ccc(N5CCN(C)CC5)cc4)nc32)c1` has what IC50?
[A] 15.6

* * *

# measured target: Epidermal growth factor receptor (Homo sapiens)
measured metric: IC50 (nM)
One number for each entry, in nM.

[Q] Please provide the recorded IC50 for `C=CC(=O)Nc1cccc(Cn2c(=O)ccc3cnc(Nc4ccc(N5CCN(C)CC5)cc4)nc32)c1` , tested on Epidermal growth factor receptor (Homo sapiens).
[A] 261

* * *

# measured target: Tyrosine-protein kinase JAK3 (Homo sapiens, UniProt P52333)
# protocol details: Inhibition of JAK3 (unknown origin) incubated for 1 hr in the presence of ATP by FRET based Z'-LYTE assay
measured metric: pIC50
Give bare numbers, as −log10 of the molar value.

[Q] # query: pIC50 of entry `C=CC(=O)Nc1cccc(-n2c(=O)cc(C)c3cnc(Nc4ccc(N5CCN(C)CC5)cc4OC)nc32)c1`
[A] 7.50

* * *

# measured target: Epidermal growth factor receptor (Homo sapiens, UniProt P00533, T790M)
# Sequence (P00533 25-1210 T790M limits assumed): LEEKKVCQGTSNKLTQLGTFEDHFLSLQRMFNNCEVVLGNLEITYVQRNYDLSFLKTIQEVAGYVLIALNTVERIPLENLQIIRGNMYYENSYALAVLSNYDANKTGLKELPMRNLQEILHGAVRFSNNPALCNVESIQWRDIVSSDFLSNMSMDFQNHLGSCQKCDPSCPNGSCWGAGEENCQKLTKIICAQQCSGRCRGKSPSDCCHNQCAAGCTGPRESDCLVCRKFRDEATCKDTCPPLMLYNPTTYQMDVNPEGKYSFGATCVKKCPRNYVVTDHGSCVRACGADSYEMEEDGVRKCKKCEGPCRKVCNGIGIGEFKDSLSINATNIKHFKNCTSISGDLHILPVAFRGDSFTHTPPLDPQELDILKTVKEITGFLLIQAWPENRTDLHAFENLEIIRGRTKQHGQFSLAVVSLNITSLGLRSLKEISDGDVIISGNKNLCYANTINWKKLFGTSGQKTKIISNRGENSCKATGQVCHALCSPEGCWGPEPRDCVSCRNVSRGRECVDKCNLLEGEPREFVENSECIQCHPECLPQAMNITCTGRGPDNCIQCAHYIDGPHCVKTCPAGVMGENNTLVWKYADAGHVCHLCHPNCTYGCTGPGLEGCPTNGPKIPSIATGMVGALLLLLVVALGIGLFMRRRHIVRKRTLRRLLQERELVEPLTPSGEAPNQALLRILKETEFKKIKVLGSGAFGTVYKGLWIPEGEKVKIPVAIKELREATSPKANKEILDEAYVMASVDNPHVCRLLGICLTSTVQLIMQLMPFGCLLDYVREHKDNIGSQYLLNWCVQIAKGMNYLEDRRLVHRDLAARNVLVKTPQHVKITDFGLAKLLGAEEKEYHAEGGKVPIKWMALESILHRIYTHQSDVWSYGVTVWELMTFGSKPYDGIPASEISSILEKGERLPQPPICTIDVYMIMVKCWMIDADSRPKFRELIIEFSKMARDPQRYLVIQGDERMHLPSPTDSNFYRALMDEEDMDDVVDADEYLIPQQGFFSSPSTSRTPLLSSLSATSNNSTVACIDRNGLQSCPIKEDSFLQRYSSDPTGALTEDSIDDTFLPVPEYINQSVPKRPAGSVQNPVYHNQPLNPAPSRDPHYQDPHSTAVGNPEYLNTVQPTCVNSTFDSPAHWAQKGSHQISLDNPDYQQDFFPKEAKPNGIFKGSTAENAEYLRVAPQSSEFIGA
# protocol details: Inhibition of EGFR T790M mutant (unknown origin) incubated for 1 hr in the presence of ATP by FRET based Z'-LYTE assay
measured metric: IC50 (nM)
Answers are plain numbers, in nM.

[Q] API: value(readout= IC50, system= Epidermal growth factor receptor (Homo sapiens, UniProt P00533, T790M), query= `C=CC(=O)Nc1cccc(Cn2c(=O)ccc3cnc(Nc4ccc(N5CCN(C)CC5)cc4)nc32)c1` )
[A] 216

* * *

# measured target: Tyrosine-protein kinase JAK3 (Homo sapiens, UniProt P52333)
# Sequence (P52333 whole entry): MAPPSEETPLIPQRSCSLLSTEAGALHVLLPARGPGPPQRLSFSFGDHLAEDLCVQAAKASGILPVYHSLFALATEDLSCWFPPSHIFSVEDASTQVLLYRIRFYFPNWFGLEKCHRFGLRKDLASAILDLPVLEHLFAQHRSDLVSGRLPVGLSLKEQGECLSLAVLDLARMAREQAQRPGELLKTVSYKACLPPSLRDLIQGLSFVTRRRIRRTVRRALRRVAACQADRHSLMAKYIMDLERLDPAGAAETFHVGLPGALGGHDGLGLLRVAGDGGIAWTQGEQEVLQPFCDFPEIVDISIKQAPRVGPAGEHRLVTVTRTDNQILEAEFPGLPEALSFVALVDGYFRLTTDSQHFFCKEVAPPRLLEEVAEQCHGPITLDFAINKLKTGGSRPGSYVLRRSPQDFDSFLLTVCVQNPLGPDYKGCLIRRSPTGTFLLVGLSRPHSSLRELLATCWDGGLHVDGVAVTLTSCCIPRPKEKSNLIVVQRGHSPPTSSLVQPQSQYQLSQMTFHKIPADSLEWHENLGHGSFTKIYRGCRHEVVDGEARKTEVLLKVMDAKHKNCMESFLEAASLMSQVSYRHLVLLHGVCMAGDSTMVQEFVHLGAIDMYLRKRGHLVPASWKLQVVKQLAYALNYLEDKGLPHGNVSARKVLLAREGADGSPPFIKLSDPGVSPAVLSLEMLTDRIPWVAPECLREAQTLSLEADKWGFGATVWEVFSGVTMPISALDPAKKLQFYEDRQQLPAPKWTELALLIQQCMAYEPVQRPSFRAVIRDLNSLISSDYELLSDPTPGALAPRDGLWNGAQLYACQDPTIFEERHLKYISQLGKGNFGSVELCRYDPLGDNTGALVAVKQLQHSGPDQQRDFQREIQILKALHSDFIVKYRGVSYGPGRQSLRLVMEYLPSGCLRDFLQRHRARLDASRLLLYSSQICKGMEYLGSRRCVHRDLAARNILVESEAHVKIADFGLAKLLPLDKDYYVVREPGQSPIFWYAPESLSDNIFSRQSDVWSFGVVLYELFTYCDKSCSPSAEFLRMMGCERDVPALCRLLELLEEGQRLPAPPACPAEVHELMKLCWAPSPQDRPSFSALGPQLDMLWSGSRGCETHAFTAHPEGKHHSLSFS
pIC50: −log10 of the molar value.
Decision: pIC50 compared against 8; not below it gives yes (1), below it gives no (0).

See these solved cases before continuing.
In [3]: df
Out[3]:
                         compound_structure  group_label
0  C=CC(=O)Nc1cccc(Cn2c(=O)cc(C)c3cnc(Nc4ccc(N5CCN(C)CC5)cc4OC)nc32)c1       no (0)
1  C=CC(=O)Nc1cccc(Cn2c(=O)ccc3cnc(Nc4ccc(C5CCN(C)CC5)cc4OC)nc32)c1      yes (1)
2  C=CC(=O)Nc1cccc(Cn2c(=O)cc(CCC)c3cnc(Nc4ccc(N5CCN(C)CC5)cc4OC)nc32)c1       no (0)
3  C=CC(=O)Nc1cccc(Cn2c(=O)ccc3cnc(Nc4ccc(N5CCN(C(C)=O)CC5)cc4OC)nc32)c1      yes (1)
4  C=CC(=O)Nc1ccccc1Cn1c(=O)ccc2cnc(Nc3ccccc3OC)nc21       no (0)
5  C=CC(=O)Nc1cccc(Cn2c(=O)ccc3cnc(Nc4cnn(C5CCN(C)CC5)c4)nc32)c1      yes (1)
6  C=CC(=O)Nc1cccc(Cn2c(=O)ccc3cnc(Nc4cnn(C)c4)nc32)c1      yes (1)
7  C=CC(=O)Nc1ccc(Cn2c(=O)ccc3cnc(Nc4ccccc4OC)nc32)cc1       no (0)

We now examine a further compound.
[Q] Is reported pIC50 greater than or equal to 8 here: `C=CC(=O)Nc1cccc(Cn2c(=O)ccc3cnc(Nc4ccc(N(C)CCN(C)C)cc4OC)nc32)c1`
[A] yes (1)
